assay-system: firefly luciferase, Photinus pyralis (FLuc) (Photinus pyralis, UniProt P08659)
Sequence (P08659 whole entry): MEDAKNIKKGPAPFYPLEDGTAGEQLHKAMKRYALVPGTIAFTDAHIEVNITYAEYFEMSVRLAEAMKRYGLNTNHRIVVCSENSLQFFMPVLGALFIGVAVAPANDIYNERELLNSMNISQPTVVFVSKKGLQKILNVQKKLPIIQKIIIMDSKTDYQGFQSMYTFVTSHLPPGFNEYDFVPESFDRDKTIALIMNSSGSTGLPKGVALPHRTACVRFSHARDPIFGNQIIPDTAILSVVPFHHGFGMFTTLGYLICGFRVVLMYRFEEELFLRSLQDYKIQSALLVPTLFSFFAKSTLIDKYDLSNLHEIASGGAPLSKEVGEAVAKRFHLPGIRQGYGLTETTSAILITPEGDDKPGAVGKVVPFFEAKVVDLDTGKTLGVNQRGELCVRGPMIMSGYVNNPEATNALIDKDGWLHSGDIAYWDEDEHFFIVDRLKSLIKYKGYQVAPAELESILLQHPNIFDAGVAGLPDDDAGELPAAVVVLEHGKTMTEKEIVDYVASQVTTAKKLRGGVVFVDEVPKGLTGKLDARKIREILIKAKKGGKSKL
assay-explanation: biochemical
Type: biochemical
conditions: Table 3; read-out: FLuc IC50
pIC50: −log10 of the molar value.
# pIC50 annotations
observable: pIC50

                                    molecule  value_reported
 0  Cc1ccc(Nc2ccnc(Nc3cccc(C(N)=O)c3)n2)cc1O [GW575808A]            5.84
 1  COc1ccc(-c2ccc3c(NC(=O)C4CC4)n[nH]c3n2)cc1            5.64
 2  C/C(Nc1ccc(S(N)(=O)=O)cc1)=C1/C(=O)Nc2ccccc21 [GW335962X]            5.44
 3  O=C1Nc2ccccc2/C1=C1\CCc2cc(O)ccc21 [GR105659X]            5.29
 4  NC(=O)c1cccc(Nc2nccc(Nc3cccc(F)c3)n2)c1 [GW759710A]            6.14
 5  COC(=O)Nc1nc2ccc(Oc3ccc(NC(=O)Nc4cccc(C(=O)O)c4)cc3)cc2[nH]1 [GW701427A]            6.92
 6  COc1cc(/C=N/Nc2ncnc3c2cnn3C(C)C)ccc1O [GW644007X]            5.24
 7  Cc1cccc(Nc2ncc(-c3ccccc3)o2)c1 [GW632046X]            6.24
 8  COc1ccccc1Nc1ncc(-c2ccccc2)o1 [GW577921A]            5.99
 9  COc1ccc(Nc2ncc(-c3ccccc3)o2)cc1OC [GW575533A]            5.24
10  O=C1Nc2ccccc2/C1=C/Nc1ccc2[nH]c(=O)[nH]c2c1 [GW284408X]            5.39
11  c1cc(-c2cnn3nc(N4CCOCC4)ccc23)nc(NC2CC2)n1 [GW708336X]            5.34
12  N#Cc1c(NC(=O)c2ccccc2F)sc2c1CCCC2 [GW572738X]            6.09
13       N#Cc1c(NC(=O)c2ccc(F)cc2)sc2c1CCCC2            6.04
14  c1ccc(Nc2ncc(-c3ccccc3)o2)cc1 [GW549390X]            6.59
15  COc1cc(/C=N/Nc2ncnc3[nH]ncc23)ccc1O [GW578748X]            5.44

----------
Entries annotated with measured IC50
assay-system: firefly luciferase, Photinus pyralis (FLuc) (Photinus pyralis)
assay-explanation: biochemical
Format: biochemical
conditions: Figure 2b, representative structures of clusters; read-out: FLuc IC50
observable: IC50

>>> df
                                   compound  observable  value_reported
0  N#Cc1cccc(Nc2ncc(-c3ccccc3)o2)c1 [GW627834A]        IC50            1 µM
1  COC(=O)Nc1nc2cc(Oc3ccc(NC(=O)Nc4ccccc4)cc3)ccc2[nH]1 [GW694590A]        IC50           15 µM
2  c1cc(-c2cnn3nc(N4CCOCC4)ccc23)nc(NC2CC2)n1 [GW708336X]        IC50            5 µM

----------
Property: IC50; scope: individual compounds
assay-system: firefly luciferase, Photinus pyralis (FLuc) (Photinus pyralis, UniProt P08659)
assay-explanation: biochemical
Type: biochemical
conditions: Figure 3; read-out: IC50 (FLuc)
observable: IC50

In [3]: df
Out[3]:
                                   compound  value_reported
0  COC(=O)Nc1nc2ccc(Oc3ccc(NC(=O)Nc4cccc(Cl)c4)cc3)cc2[nH]1 [GW589961A]         > 30 µM
1  CCc1cccc(NC(=O)Nc2ccc(Oc3ccc4nc(NC(=O)OC)[nH]c4c3)cc2)c1 [GW673715X]         > 30 µM
2  CCN(CC)S(=O)(=O)c1ccc(OC)c(Nc2ncc(-c3ccccc3)o2)c1 [GW572401X]         > 20 µM
3  COC(=O)Nc1nc2cc(Oc3ccc(NC(=O)Nc4cccc(Br)c4)cc3)ccc2[nH]1 [GW694234A]         > 30 µM
